Values from paper PMC11117661

Experiment: cysteine trapping assay ([35S]cysteine, HPLC with radiomatic detector) for reactive metabolites
Conditions: human liver microsome 2 mg/mL, L-[35S]-Cysteine, NADPH, 37 °C, 2 h
This listing pairs compounds with measured log10 of RI integrated area.
metric: log10 of RI integrated area (log10 of the value in count)

1) O=C(O)COc1ccc(C(=O)c2cccs2)c(Cl)c1Cl [Tienilic acid]; 3.58
2) CC(C)C(=O)Nc1ccc([N+](=O)[O-])c(C(F)(F)F)c1 [Flutamide]; 2.83
3) CC(C)NCC(O)COc1cccc2ccccc12 (centres unmarked) [Propranolol]; 3.56
4) NC(=O)N1c2ccccc2C=Cc2ccccc21 [Carbamazepine]; 1.79
5) C[C@H]1COc2c(N3CCN(C)CC3)c(F)cc3c(=O)c(C(=O)O)cn1c23 [Levofloxacin]; 2.18

====

Experiment: cysteine trapping assay ([35S]cysteine, HPLC with radiomatic detector) for reactive metabolites
Conditions: human liver microsome 2 mg/mL, L-[35S]-Cysteine, NADPH, 37 °C, 2 h
metric: RI integrated area (count)

1) CCc1ccc(CCOc2ccc(CC3SC(=O)NC3=O)cc2)nc1 (stereo not drawn); 105.8
2) CCc1oc2ccccc2c1C(=O)c1cc(Br)c(O)c(Br)c1; 4516.4
3) COc1cc(C(=O)NS(=O)(=O)c2ccccc2C)ccc1Cc1cn(C)c2ccc(NC(=O)OC3CCCC3)cc12; 263.4

====

Assay: cysteine trapping assay ([35S]cysteine, HPLC with radiomatic detector) for reactive metabolites
Conditions: human liver microsome 2 mg/mL, L-[35S]-Cysteine, NADPH, 37 °C, 2 h
This listing pairs compounds with measured RI integrated area.
metric: RI integrated area (count)

1) COC(=O)[C@H](c1ccccc1Cl)N1CCc2sccc2C1; 708.2
2) CC(C)c1nc(CN(C)C(=O)N[C@H](C(=O)N[C@@H](Cc2ccccc2)C[C@H](O)[C@H](Cc2ccccc2)NC(=O)OCc2cncs2)C(C)C)cs1; 593.9
3) CCN(CC)Cc1cc(Nc2ccnc3cc(Cl)ccc23)ccc1O; 346.7
4) COc1ccc2c(c1)c(CC(=O)O)c(C)n2C(=O)c1ccc(Cl)cc1; 89.0
5) CC[C@H](C)C(=O)O[C@H]1C[C@H](O)C=C2C=C[C@H](C)[C@H](CC[C@@H](O)C[C@@H](O)CC(=O)O)[C@H]21; 25.4
6) O=C1NC(=O)C(c2ccccc2)(c2ccccc2)N1; 34.7
7) Cc1c(N(C)C)c(=O)n(-c2ccccc2)n1C; 44.3
8) O=C(O)Cc1ccccc1Nc1c(Cl)cccc1Cl; 1230.1
9) CNCCC(Oc1ccc(C(F)(F)F)cc1)c1ccccc1 (stereo not drawn); 153.8

====

This listing pairs molecules with measured RI integrated area.
Experiment: cysteine trapping assay ([35S]cysteine, HPLC with radiomatic detector) for reactive metabolites
Settings: human liver microsome 2 mg/mL, L-[35S]-Cysteine, NADPH, 37 °C, 2 h
metric: RI integrated area (count)

1) CN(CCOc1ccc(CC2SC(=O)NC2=O)cc1)c1ccccn1 (centres unmarked); 1593.7
2) Cn1c(=O)c2c(ncn2C)n(C)c1=O; 22.4
3) Cc1c(C)c2c(c(C)c1O)CCC(C)(COc1ccc(CC3SC(=O)NC3=O)cc1)O2 (centres unmarked); 521.7
4) Cc1cc(CC(=O)O)n(C)c1C(=O)c1ccc(Cl)cc1 [Zomepirac]; 217.5
5) CC/C(=C(\c1ccccc1)c1ccc(OCCN(C)C)cc1)c1ccccc1; 162.1
